- Test system: K4 kissing-loop RNA reporter
- TEST NAME: apparent KD of K4 kissing-loop reporter; higher = weaker reporter binding
- CONDITIONS USED: Eterna round: R107; input ligand: none
TEST READOUT: apparent KD of K4 kissing-loop reporter (nM)
Numbers only, in nM.

| SEQUENCE STRING | TARGET OR TEST SYSTEM | apparent KD of K4 kissing-loop reporter (nM) |
| --- | --- | --- |
| AGGCGGCAUGAUUGACUGAAAAGAAAUCAACGAGGACCGGUACGGCCGCCACUCGAACACCAGUGAUGUUGGUAUGGGAUAACCC [Exclusion Tryptophan A GF 19] | K4 kissing-loop RNA reporter | 184 |
| AGCUCAGAGUGACUCGAUAAGAGUCACAAACGAGGACCGGUACGGCCGCCACUCGAAAUAAUGGGAGUGAUGUUCUCACUGAGCA [#SwitchBubble 3 #StaticStem #K4Late] | K4 kissing-loop RNA reporter | 1190 |

For the next question, use this sequence.
Challenge: Lookup: apparent KD of K4 kissing-loop reporter / K4 kissing-loop RNA reporter / UCUUAACUAAAAUAAUGGGAUACCAGUGAUACCAGCCAUAUGCAGGGCCCUUGGCAGCACCCUUGGCAGCCUCGAGUGAUGUUCG [KL-SSTheo-A7 #DoubleAptamer]
Response given: 315

* * *

Would you kindly list apparent KD of MS2 coat protein for each of these sequences?
- System: MS2 coat protein
- TEST NAME: apparent KD of MS2 coat protein; designed switch direction (-1 OFF switch, 1 ON switch): 1; higher = weaker reporter binding
- CONDITIONS USED: input ligand: microRNA oligo, concentration not stated
One number for each entry, in nM.

| SEQUENCE STRING | apparent KD of MS2 coat protein (nM) |
| --- | --- |
| CUCACUUGGGUAGGAUAUCUAGGAUAUGGGAAAGACUAAGUCUGUAGGUCACCUAACCCAGAUGGAGAGAAGGACCCAACACUC [pwkr ssNG2 2FMN + F9.38] (Eterna round: R96, puzzle: Same State NG 2) | 2.64 |
| GAAGCGGCAGAAUAAAACAUGAGGAUCACCCAUGUCGCGGUUUAGGAUAUGGGACGGGUAUGAACCCAGAAGGAGACCGCAGGC [Eternabot solution 2] (Eterna round: R96, puzzle: Same State NG 3) | 33.8 |
| AGGCUCAGACGAGGAUAUAUGUGAUCACAUGAGGAUCACCCAUGUCUCGAGCUUCGGCUCGAGACAUAGAAGGUGUCUGAGCCA [SSNG2/3-C1] (Eterna round: R96, puzzle: Same State NG 2) | 3.03 |

For each of the sequences below, state apparent KD of MS2 coat protein.
1. UUAAUGAAGUAAGGAUAUACAUGAGGAUCACUCGUAGAAGGUACUAUACAUGAGGAUCACCCAUGUUCCGGUCAGAAGACUGGA [Mat - Same State NG 1 - JL mod - D3] (Eterna round: R96, puzzle: Same State NG 1)
2. CCGGUUUAUGGAGGAUAUGGAGCCUUAUUGGCUCCAGAAGGCUAAUAACAUGAGGAUCACCCAUGUCGGCGGUCUAAUGACCGA [Eli NG1ss - 56] (Eterna round: R96, puzzle: Same State NG 1)
3. ACAUGAGAUCGAGGAUAUUUUGUACCUACAUGUGACAUGAGGAUCACCCAUGUGGUAAGUAUGAGAAAGAAGGCGAAGAUAUGU [Equivalence 16 - Jieux - Same State NG 2] (Eterna round: R96, puzzle: Same State NG 2)
4. GCUCGAUGUGUUGUCUACAUGAGGAUCACCCAUGUAGAUGCGGAGGAUAUCUACGUGCUUUAUGUAGAGAAGGUCGUAUCGAGC [SameState NG3 #85] (Eterna round: R96, puzzle: Same State NG 3)
5. UGAAUAGUUACAGGAUAUGAGUUGUAAAUUGGGUCAGAAGGGUGGGUGUUCUGCGCGGUGUGUUACAUGAGGAUCACCCAUGUU [SameState NG1 #29] (Eterna round: R96, puzzle: Same State NG 1)
6. UUAAUUUACUGAGGAUAUCGUGUCGACUGAGUUGACAUGAGGAUCACCCAUGUGUGAAGUGGUAUCGAGAAGGCAGUUUUCUUA [JR_SSNG2_Sub026] (Eterna round: R96, puzzle: Same State NG 2)
7. AAGCUCGUGUGAGGAUAUGCCGCCGUUUCGGCUGCAGAAGGUGCUACGUUACAUGAGGAUCACCCAUGUCUCUGUUGUUUCGUC [salish99_SSNG1_r04_954] (Eterna round: R96, puzzle: Same State NG 1)

Response given:
1. 411
2. 21.8
3. 29.3
4. 23.7
5. 182
6. 76.9
7. 22.1

For each of the sequences below, state apparent KD of MS2 coat protein.
1. AAAAGACAUGAGGAUCACCCAUGUGAAAACGUAGGAGGAUAUGUCGUGAAAAAAGACUUGACAGAAGGCCUGUGUC [SS1 - 34] (Eterna round: R96, puzzle: Same State 1)
2. GGUAAGAAUUAAGGAUAUCGAGUACAUAUGUUUAACAUGAGGAUCACCCAUGUGGGUUGCGGUAUCGAGAAGGUAAAAUAAAAG [Mat - same State NG 2 - JL mod - D65] (Eterna round: R96, puzzle: Same State NG 2)
3. AUUAUUAAUGCAGGAUAUGAUUAACAUGAGGAUCACCCAUGUGGUGUUGUGAGUAAGGAGAGUGAUCAGAAGGGCAUUUUUUAU [JMF's solution 15] (Eterna round: R96, puzzle: Same State NG 2)
4. CUGAGCAAUCAAGGAUAUCACGUCGAUUAGACGUGAGAAGGUGAUCAUUACAUGAGGAUCACCCAUGUGUUACAUGGAGCUCAG [Brourd's SSNG1/1-A2 mod 3] (Eterna round: R96, puzzle: Same State NG 1)
5. GCUACCAUUGAAGCCUACAUGAGGAUCACCCAUGUAUGUAGGCAGGAUAUCGAUUGCUUUGCGAUCGAGAAGGGCUUAGGUAGC [JL SSNG3 1.30] (Eterna round: R96, puzzle: Same State NG 3)

Response given:
88.9
29.2
387
54.9
47.5

For each of the sequences below, state apparent KD of MS2 coat protein.
1. AUUAAUAAUCGAGGAUAUCACGUCGAAUAGACGUGAGAAGGCGAUCAUAACAUGAGGAUCACCCAUGUAUUACAUGAAGUUAAU [SSNG1/4-B1] (Eterna round: R96, puzzle: Same State NG 1)
2. GUAGCAUACCGAGGAUAUUCAUAUUAUAAACAUGAGGAUCACCCAUGUGGCCGAUUACGGCCUUGGGAGAAGGCGGAAUGCUAC [Xeonanis - 20 Mod17] (Eterna round: R96, puzzle: Same State NG 2)
3. UUGAAGAAUAUAGGAUAUUGAAUACAUAUGUUUAACAUGAGGAUCACCCAUGUGGGUUGCGGUAUCGAGAAGGAUAAAUAAUAG [Mat - Same State NG 2 - JL mod - D13] (Eterna round: R96, puzzle: Same State NG 2)

Response given:
1. 20
2. 641
3. 122

* * *

- Tested on: MS2 coat protein
- TEST NAME: apparent KD of MS2 coat protein; designed switch direction (-1 OFF switch, 1 ON switch): 1; higher = weaker reporter binding
- CONDITIONS USED: input ligand: none
Would you kindly list apparent KD of MS2 coat protein for each of these sequences?
Answers are plain numbers, in nM.

Study these solved cases before continuing.
| SEQUENCE STRING | apparent KD of MS2 coat protein (nM) |
| --- | --- |
| CGAGAGUGCGUAGGAUAUCCGAAAGGAAGUGUAGGAGAAGGGCGGAACGCUCAUCGAAAACAUGAGGAUCACCCAUGUACAAAU [PowerStrip SSNG 1.17] (Eterna round: R96, puzzle: Same State NG 1) | 43.9 |
| UUAUCCUUUUUUUACAUGAGGAUCACCCAUGUUUUUCUUACGUAGGAUAUCGUUGUUUUUUUUUACGAGAAGGACGUAGUAAGA [JR_SSND3_Sub061] (Eterna round: R96, puzzle: Same State NG 3) | 37.1 |

For the next question, use this sequence.
Challenge: // apparent KD of MS2 coat protein lookup, key: GGUCAGACUCACAUGAGGAUCACCCAUGUACCGGAAACGGCACAGGAUAUCUGUCCGAAAAGGUCAGAGAAGGGUGUACUGACC [Fiskers NG3ss - 53] (Eterna round: R96, puzzle: Same State NG 3)
Response given: 82

* * *

Would you kindly list apparent KD of K4 kissing-loop reporter for each of these sequences?
- Tested on: K4 kissing-loop RNA reporter;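 further: bound reporter read as fluorescence of individual clusters on recovered sequencing chips by microscopy, with normalized cluster intensities fitted with a binding model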
- TEST NAME: apparent KD of K4 kissing-loop reporter; higher = weaker reporter binding
- CONDITIONS USED: Eterna round: R107; input ligand: tryptophan 2.4 mM
One number for each entry, in nM.

| SEQUENCE STRING | apparent KD of K4 kissing-loop reporter [nM] |
| --- | --- |
| AAGUCACAGGCAGGAUAUGCUUAGUAUUAAGGCCAUAUAUACGUAUAGAGUGAUGUUUUGUACCAGGCAGAAGGGCUACAUCCGU [FMN B Excl V4 (+U)] | 463 |
| ACGUAUAUCAGAGGAUAUCGUAUUAAUAUUUUAUCUAUCUAUAUAUGCAGUGAUGUUGCAAUAAUUCGAGAAGGCUGAUUUACGA [JR_ExcFMNB_Sub010] | 87.3 |
| CCCAAAAUAUGCAGUGAUGUUGCAACUGAUACCAGUAUCGAAAGAUACCCUUGGCAGCGGAAAACCGCUACGUAAUUUAAAAGGG [Ex Theophylline A K4 18] | 187 |
| UGACUGGACUGAAGGAGCGGGAAACUCCUAGUGAUGUUAGGAAUACGAGACAAAGUCUCGACCCAGGUAGGUCGCAGUCUAGUCU [ArgBS 17 #SwitchBubble #StaticStem] | 119 |
| CGCGCGCGCUUGAGAGGGCGCGCGCGAAGUGAGGAUAUUUAGGGAGAAAGAAGGCACUAUAAAAUAUAGUGAUGUUAUAUAAGGG [SSFMNA.E] | 441 |

For each of the sequences below, state apparent KD of K4 kissing-loop reporter.
1. ACACUAUCGUCAUAGACGGUAGUGAAAGCUCAGGAUAUGAGUGAUGUUAGAAGGGAGUAAAUCUUAGGUAUCGAAUAGAUACCAA [FmnA 7 #K4BetweenAptamer #OpenEnded]
2. GCGUGCAAGUCAUGAUGCCCUAUCAGGACUAAGGAUAUAGCGUGACCUAGAAGGUAGCUAGUGAUGUUGGCUGACAUGCUACUGC [theeternabot_exclusion_KL_FMN_A_49]
3. AUGGCACGACUUGCCCACAAUGUCUAUGCCCGAGGACCGGUACGGCCGCCACUCGGAUGCCGUGUCUUAUUAGUGAUGUUGAUAC [theeternabot_sameState_KL_Trp_A_4]
4. AACAGCAAUGCGGCCGCCACUUCGAGGUCAGUGAUGUUGACGGGAUUAAAUAAAGAUCCCAAGAGGAGGACCGGGCAGUGCUGUU [whbob_SS_Tryp_B_t26]

Response given:
1. 416
2. 376
3. 199
4. 192

For each of the sequences below, state apparent KD of K4 kissing-loop reporter.
1. CAUACGCAUGGAGGAUAUGAGAUUUUUCAUAUUACUUUUUAUUCUCAGUGAUGUUGGGAUUUGUAAUCAGAAGGCCAUGUGUAUG [#10 K4 FMN B Exclusion]
2. UUUAUAAUGUCGGCCGCCACUGGAUUAAUAUUUGUAUAAUCUAGUUCUAAGUGAUGUUUAGAGUCCAGGACCGGGACAUUUGUUA [#09 K4 Tryptophan B Exclusion]

Response given:
98.1
212
